Consider the following molecules; for each one, report its MIC.
Test system: M. abscessus MABS2
Give bare numbers, in µg/mL.

Reference set, count: 3
INSERT INTO assay_data (molecule, measurementkind, quantitativeresult) VALUES
  ('C[C@@H](O)[C@H]1C(=O)N2C(C(=O)O)=C(SCCN=CN)C[C@H]12 [Imipenem]', 'MIC', 1),
  ('CC[C@H]1OC(=O)[C@H](C)[C@@H](O[C@H]2C[C@@](C)(OC)[C@@H](O)[C@H](C)O2)[C@H](C)[C@@H](O[C@@H]2O[C@H](C)C[C@H](N(C)C)[C@H]2O)[C@](C)(OC)C[C@@H](C)C(=O)[C@H](C)[C@@H](O)[C@]1(C)O [Clarithromycin]', 'MIC', 4),
  ('CO[C@@]1(NC(=O)Cc2cccs2)C(=O)N2C(C(=O)O)=C(COC(N)=O)CS[C@@H]21 [Cefoxitin]', 'MIC', 8);

Alright, here's another molecule for you.
I'm curious: which MIC was measured for NCC[C@H](O)C(=O)N[C@@H]1C[C@H](N)[C@@H](O[C@H]2O[C@H](CN)[C@@H](O)[C@H](O)[C@H]2O)[C@H](O)[C@H]1O[C@H]1O[C@H](CO)[C@@H](O)[C@H](N)[C@H]1O [amikacin] tested on M. abscessus MABS2?
32
